Data provenance is patent US20240132461A1.

Tested on: NALM-6
procedure_text: Cell viability assay, leukaemia cell line NALM-6
Format: cell-based
test_context: Homo sapiens; NALM-6 leukaemia cell line
experimental_readout: IC50 (µM)
Answers are plain numbers, in µM.

GET /values?item= COc1c(O)ccc2c(=O)cc(-c3ccc(CNCCCCNCCCN)cc3)oc12 [SND164] &system= NALM-6 returns IC50: 4.45

* * *

System: HCT-116
procedure_text: Cell viability assay, colon cancer cell line HCT-116
Assay type: cell-based
test_context: Homo sapiens, HCT-116, HCT-116 colon cancer cell line
experimental_readout: IC50

Measured IC50 of O=c1cc(-c2ccc(CCCN3CCCCC3)cc2)oc2c(O)c(O)ccc12 [SND172] : < 20 µM
